Would you mind telling me the reported IC50 of each entry?
test system: human JAK2 (Homo sapiens (Human))
Sequence (O60674 815-1132): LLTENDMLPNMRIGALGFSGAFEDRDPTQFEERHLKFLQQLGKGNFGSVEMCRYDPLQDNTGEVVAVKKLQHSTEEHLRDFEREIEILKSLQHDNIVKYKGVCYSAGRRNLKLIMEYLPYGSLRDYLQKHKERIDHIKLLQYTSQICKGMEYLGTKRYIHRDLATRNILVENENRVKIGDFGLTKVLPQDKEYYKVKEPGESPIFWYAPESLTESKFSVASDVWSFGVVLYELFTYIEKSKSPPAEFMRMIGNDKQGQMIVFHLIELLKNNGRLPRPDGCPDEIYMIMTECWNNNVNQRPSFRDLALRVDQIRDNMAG
details: read-out: JAK2 IC50
Answers are plain numbers, in nM.

>  <smiles str>
CN1Cc2ccc(Nc3nc4c(C#Cc5ccccc5N(C)S(C)(=O)=O)cccn4n3)cc2C1

>  <unit of measurement>
nM

>  <result value>
11.5

$$$$
>  <smiles str>
COc1ccccc1CNc1cccn2nc(Nc3ccc(C)nc3)nc12

>  <unit of measurement>
nM

>  <result value>
27.6

$$$$

Answer for every listed entry: what is its IC50? The entries follow.
1. CN1CCN(c2cccc(Nc3nc4c(Nc5ccccc5CN(C)S(C)(=O)=O)cccn4n3)c2)CC1
2. CS(=O)(=O)c1ccc(-c2cccn3nc(Nc4cnn(C5CCNCC5)c4)nc23)cc1
3. COc1cnc(-c2cccn3nc(Nc4ccc(C5CCN(CC(=O)N(C)C)CC5)cc4)nc23)cn1
4. CS(=O)(=O)CCN1CCc2ccc(Nc3nc4c(-c5cc(C(F)(F)F)ccc5Cl)cccn4n3)cc2CC1
5. CS(=O)(=O)c1ccc(Oc2cccn3nc(Nc4cnn(CCN5CCCC5)c4)nc23)cc1
6. CS(=O)(=O)c1ccc(-c2cccc3nc(Nc4cccc(S(C)(=O)=O)c4)nn23)cc1
7. c1ccc(-c2cccn3nc(Nc4ccc5c(c4)CCNCC5)nc23)c(OCC2CC2)c1
8. CN1CCC(c2cccc(Nc3nc4c(-c5ccccc5N(C)S(C)(=O)=O)cccn4n3)c2)CC1

Result string:
[453, 0.71, 134, 16.8, 3000, 9.3, 112, 1200]

Answer for every listed entry: what is its IC50? The entries follow.
1. CN(Cc1ccccc1CNc1cccn2nc(Nc3ccc(OCCN4CCCC4)cc3)nc12)S(C)(=O)=O
2. CC(C)COc1cccc(-c2cccn3nc(Nc4ccc5c(c4)CCNCC5)nc23)c1
3. CN(C)C(=O)CN1CCC(c2ccc(Nc3nc4c(-c5ccc[nH]c5=O)cccn4n3)cc2)CC1
4. CS(=O)(=O)c1ccc(-c2cccc3nc(Nc4cccc(CN5CCS(=O)(=O)CC5)c4)nn23)cc1
5. CN1CCN(c2cccc(Nc3nc4c(-c5ccc(P(C)(C)=O)cc5)cccn4n3)c2)C(=O)C1
6. CS(=O)(=O)c1ccc(-c2cccn3nc(Nc4ccc(N5CCOCC5)cc4)nc23)cc1
7. CN1CCN(c2cccc(Nc3nc4c(-c5ccc(P(C)(C)=O)cc5)cccn4n3)c2)CC1
8. CN(c1ncccc1CNc1cccn2nc(Nc3cccc(S(C)(=O)=O)c3)nc12)S(C)(=O)=O

Result string:
97.5
32.6
270
0.55
10.5
0.9
1.73
77.8

Answer for every listed entry: what is its IC50? The entries follow.
1. CN1CCN(Cc2ccc(Nc3nc4cccc(-c5cccc(S(C)(=O)=O)c5)n4n3)cc2)CC1
2. CN1CCN(c2ccc(Nc3nc4c(N(C)Cc5ccccc5N(C)S(C)(=O)=O)cccn4n3)cc2)CC1

Result string:
1. 11.7
2. 51.1

====

Would you mind telling me the reported IC50 of each entry?
test system: human FAK (Homo sapiens (Human), UniProt Q05397)
Sequence (Q05397 whole entry): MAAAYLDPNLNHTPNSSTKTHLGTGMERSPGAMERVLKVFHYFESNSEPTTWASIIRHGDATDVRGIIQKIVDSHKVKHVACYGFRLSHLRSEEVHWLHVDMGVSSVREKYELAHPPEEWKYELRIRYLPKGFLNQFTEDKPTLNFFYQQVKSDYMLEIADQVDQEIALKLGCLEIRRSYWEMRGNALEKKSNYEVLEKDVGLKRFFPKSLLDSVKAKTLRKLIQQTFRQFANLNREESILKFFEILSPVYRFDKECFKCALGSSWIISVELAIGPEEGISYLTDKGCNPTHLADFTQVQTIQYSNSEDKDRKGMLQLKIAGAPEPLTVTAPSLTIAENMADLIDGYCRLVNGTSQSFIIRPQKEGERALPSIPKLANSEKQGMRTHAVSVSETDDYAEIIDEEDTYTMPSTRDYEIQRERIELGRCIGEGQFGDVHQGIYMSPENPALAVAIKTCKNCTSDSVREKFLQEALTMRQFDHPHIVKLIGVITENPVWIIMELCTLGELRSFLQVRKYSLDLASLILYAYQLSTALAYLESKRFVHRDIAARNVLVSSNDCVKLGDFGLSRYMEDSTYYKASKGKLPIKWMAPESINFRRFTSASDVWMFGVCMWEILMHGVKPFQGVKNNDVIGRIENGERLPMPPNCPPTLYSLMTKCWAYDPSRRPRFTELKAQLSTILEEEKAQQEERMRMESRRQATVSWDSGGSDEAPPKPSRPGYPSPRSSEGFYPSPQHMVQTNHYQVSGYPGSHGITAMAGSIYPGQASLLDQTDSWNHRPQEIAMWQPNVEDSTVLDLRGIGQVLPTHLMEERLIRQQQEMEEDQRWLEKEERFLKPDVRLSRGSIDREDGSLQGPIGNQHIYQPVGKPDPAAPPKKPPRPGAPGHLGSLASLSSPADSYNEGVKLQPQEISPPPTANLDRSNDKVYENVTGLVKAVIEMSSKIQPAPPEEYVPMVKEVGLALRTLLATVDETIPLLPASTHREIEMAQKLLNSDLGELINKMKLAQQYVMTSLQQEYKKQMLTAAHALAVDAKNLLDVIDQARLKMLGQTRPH
details: read-out: FAK IC50
Answers are plain numbers, in µM.

# count of solved cases: 3
>  <smiles str>
COc1ccc(C(F)(F)F)cc1-c1cccc2nc(Nc3ccc4c(c3)CCN(CC(=O)N(C)C)CC4)nn12

>  <unit of measurement>
µM

>  <IC50>
0.714

$$$$
>  <smiles str>
CN1CCN(c2ccc(Nc3nc4c(-c5ccc(C(F)(F)F)cc5)cccn4n3)cc2)CC1

>  <unit of measurement>
µM

>  <IC50>
1.25

$$$$
>  <smiles str>
CN1CCN(c2cccc(Nc3nc4c(-c5ccc(F)cc5)cccn4n3)c2)CC1

>  <unit of measurement>
µM

>  <IC50>
0.999

$$$$

Answer for every listed entry: what is its IC50? The entries follow.
1. CN(C)C(=O)CN1CCC(c2ccc(Nc3nc4c(-c5cnn(-c6ccc(F)cc6)c5)cccn4n3)cc2)CC1
2. CS(=O)(=O)c1ccc(-c2cccc3nc(Nc4cccc(CN5CCOCC5)c4)nn23)cc1
3. CN1CCN(c2ccc(Nc3nc4c(OCc5cccc(Cl)c5)cccn4n3)cc2)CC1

Result string:
[1.37, 1.47, 1.1]
